assayed-system: AGTR1 (Homo sapiens, UniProt P30556)
Construct: host or cells: Pathunter CHO-K1 AGTR1 β-arrestin cell line (CHO-K1)
Sequence (P30556 1-359): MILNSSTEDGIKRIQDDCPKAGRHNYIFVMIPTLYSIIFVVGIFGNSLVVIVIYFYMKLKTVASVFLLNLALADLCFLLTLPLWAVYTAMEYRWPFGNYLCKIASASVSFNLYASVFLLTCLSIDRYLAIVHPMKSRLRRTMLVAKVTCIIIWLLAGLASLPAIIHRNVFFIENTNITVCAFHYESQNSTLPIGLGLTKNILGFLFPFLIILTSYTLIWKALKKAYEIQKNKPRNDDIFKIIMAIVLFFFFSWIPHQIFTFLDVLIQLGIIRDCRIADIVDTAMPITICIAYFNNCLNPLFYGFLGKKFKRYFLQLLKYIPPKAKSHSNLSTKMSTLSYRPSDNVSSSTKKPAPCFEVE
assay-method-text: DiscoveRx β-arrestin2 recruitment assay (enzyme complementation, Pathunter CHO-K1 AGTR1 β-arrestin cell line)
Format: cell-based
condition-summary: DiscoveRx β-arrestin2 recruitment, maximal response
Entries and their DiscoveRx β-arrestin2 Ymax (%)
Numbers only here, please. The scale is %.

Check out these entries, answers already filled in.
[
  {
    "compound": "CCc1nc2c(C)cc(C)nc2n1Cc1ccc(-c2cc(-c3ccccc3)ccc2-c2nn[nH]n2)c(F)c1 [Example 265]",
    "assayed-system": "AGTR1 (Homo sapiens, UniProt P30556)",
    "DiscoveRx β-arrestin2 Ymax (%)": 53.4
  },
  {
    "compound": "CCc1nc2c(C)cc(C)nc2n1Cc1ccc(-c2cc(-c3ccccc3F)ccc2-c2nn[nH]n2)cc1 [Example 19]",
    "assayed-system": "AGTR1 (Homo sapiens, UniProt P30556)",
    "DiscoveRx β-arrestin2 Ymax (%)": 57.9
  },
  {
    "compound": "CCc1nc2c(C)cc(C)nc2n1Cc1ccc(-c2cc(-c3ccc(OC)cc3)ccc2-c2nn[nH]n2)cc1 [Example 14]",
    "assayed-system": "AGTR1 (Homo sapiens, UniProt P30556)",
    "DiscoveRx β-arrestin2 Ymax (%)": 20.8
  }
]

Alright, here's another compound for you.
**Query** Quick one: DiscoveRx β-arrestin2 Ymax (%) of CCc1nc2c(C)cc(C)nc2n1Cc1ccc(-c2cc(-c3cccc(C)c3)ccc2-c2nnn[nH]2)nc1 [Example 175] ?
**Result** 37.0
